target-system: T1, Fel d1 (B-A)-mmH (cat (Felis domesticus))
T1 construct: Expressed in CHO cells; also called rFel d1.mmH; rFel d1-mmH
T1 sequence (chain, as listed by the source limits assumed): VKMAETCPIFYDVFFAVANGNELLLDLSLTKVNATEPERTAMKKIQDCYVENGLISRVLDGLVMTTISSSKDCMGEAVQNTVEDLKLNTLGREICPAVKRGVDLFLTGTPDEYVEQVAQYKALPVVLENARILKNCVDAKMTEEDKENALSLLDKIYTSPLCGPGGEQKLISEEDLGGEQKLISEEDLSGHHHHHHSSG
protocol-summary: SPR, mAb captured, Fel d1 (B-A)-mmH injected, 25 C;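 note: rate constants obtained by fitting sensorgrams to a one-to-one binding model, Kd computed as koff over kon, half-life derived from koff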
Catalogue of log10 of koff readings, one per entry.
attribute-measured: log10 of koff (log10 of the value in s⁻¹)

1. H2M1233N (antibody, mouse IgG2, V domains shown, chimeric, human variable domains with mouse IgG2 Fc (prefix H2M)) VH: QVVLVESGGGVVQPGRSLRLSCAASGFTFSSYGMHWVRQAPGKGLEWVAVIWYDGSNKYYVDSVKGRFTISRDNSNNTIYLQMNSLRAEDTAVYYCARSLIPVAGTDPIFGYWGQGTLVTVSS VL: DIQMTQSPSTLSASVGDRVTITCRASQSVSSWLAWYQQKPGKAPKLLIFKASGLESGVPFRFSGSGSGTEFTLTISSLQPDDFATYYCQQYNTYSPTFGQGTKVEIK; -3.78
2. H4H2594S (antibody, human IgG4, V domains shown, human IgG4 Fc (prefix H4H)) VH: EVQLVESGGGLVKPGGSLRLSCAASGFTFSDYYMNWIRQAPGKGLEWVSYISSSGSSIYYADSVKGRFTISRDNAKNSLYLLMNSLRAEDTAVYYCARDGKYNSSPGDYWGQGTLVTVSS VL: DIQMTQSPSSLSASVGDRVTIACRASQGISNYLAWFQQKPGKAPKSLIYAASSLQSGVPSKFSGSGSGTDFTLTISSLQPEDFATYYCQQYNSYPLTFGGGTKVEIKR; -3.28
3. H4H2864P (antibody, human IgG4, V domains shown, human IgG4 Fc (prefix H4H)) VH: EVQLVESGGGLAQPGGSLRLSCAASGFTFNNYAMTWVRQAPGKGLDWVSAISDSGRSTFSADSVKGRFTISRDNSKNTLYLQMDSLRAEDTALYYCAKHRNWNYPVFDYWGQGTLVTVSS VL: DIQLTQSPSFLSASVGDRVTITCWASQGISSYLAWYQQKPGKAPKLLIYSASTLQSGVPSRFSGSGSGTEFTLTISSLQPEDFATYYCQQLNSYPFTFGPGTKVDIK; -3.51
4. H4H1232N (antibody, human IgG4, V domains shown, human IgG4 Fc (prefix H4H); also called REGN1908) VH: EVQLVESGGGLVKPGGSLRLSCAASGFTFRNYNINWVRQAPGKGLEWVSLISGSSSYIYYADSVKGRFTVSRDNAKNSLYLQMNSLRAEDTAVYYCARRTLSYYVMDVWGQGTTVTVSS VL: DIQVTQSPSPLSASVGDRVTITCRASQGISNYLAWYQQKPGRVPQLLIYAASTLQSGVPSRFSGSGSGTDFTLTISSLQPEDVATYYCQKYNSAPYTFGQGTKLEIK; -3.59
5. H4H1616N (antibody, human IgG4, V domains shown, human IgG4 Fc (prefix H4H)) VH: EVELLESGGGLVQPGGSLRLSCAASGFTFSSYAMSWVRQAPGKGLEWVSSISGRVGSTHFADSVKGRFTFSRDNSKNTLYLQLSSLRAEDTAVYYCARSRGAAYFDYWGQGTLVTVSS VL: DIQMTQSPSSLSASVGDRVTITCQANQDISNFLNWYQQRPGKAPNLLIYAASNLETGVPSRFSGSGSGTDFTFTISSLQPEDIATYYCQHYDNFPFTFGPGTKVDIK; -2.73
6. H4H2636P (antibody, human IgG4, V domains shown, human IgG4 Fc (prefix H4H); also called REGN1909) VH: EVQLVESGGGLVQPGGSLRLSCAASGFTFSSYAMSWVRQAPGKGLEWVSAISGRGYNADYADSVKGRFTISRDNSKNTLYLQMNSLRAEDTAVYYCAKLEYFDYWGQGTLVTVSS VL: DIQMTQSPSTLSASVGDRVTITCRASQSISSWLAWYQQKPGKAPKLLIYKASSLESGVPSRFSGSGSGTDFTLTISSLRPEDFATYYCQQYNSYPLTFGGGTKVEIK; -3.63
7. H4H2606B (antibody, human IgG4, V domains shown, human IgG4 Fc (prefix H4H)) VH: EVQLVESGGGLVKPGGSLRLSCAASGFTFSDYYMNWIRQAPGKGLEWVSYISSSGNSIYYADSVKGRFTISRDNAKNSLFLQMSSLRAEDTAVYYCARDGRYNDRRRGYYWGQGTLVTVSS VL: EIVMTQSPDFQSVTPKEKVTITCRASQSIGSSLHWYQQKPDQSPKLLIKYASQSFSGVPSRFSGSGSGTDFTLTINSLEAEDAATYYCLQSSSLRTFGQGTKVEIKR; -3.31
8. H2M1237N (antibody, mouse IgG2, V domains shown, chimeric, human variable domains with mouse IgG2 Fc (prefix H2M)) VH: QVVLVESGGGVVQPGRSLRLSCAASGFTFSSYGMHWVRQAPGKGLEWVAVIWYDGSIKYYADSVKGRFTISRDNSNNTIYLQMNSLRAEDTAVYYCARALIPVAGTDPIFGYWGQGTLVTVSS VL: DIQMTQSPSTLSASVGDRVTITCRASQSVSSWLAWYQQKPGKAPKLLIFKTSGLESGVPFRFSGSGSGTEFTLTISSLQPDDFATYYCQQYNTYSPTFGQGTKVEIK; -3.78
9. H4H2607B (antibody, human IgG4, V domains shown, human IgG4 Fc (prefix H4H)) VH: EVQLVESGGGLVKPGGSLRLSCAASGFTFSDYYMNWIRQAPGKGLEWISYLSSSGSATYYADSVKGRFTISRDNAKNSLYLQMNSLRAEDTAVYYCARDGKYNTVAGDYWGQGTTVTVSS VL: DIQLTQSPSSLSASVGDRVTITCRASQGIRNDLGWYQQKPGKAPKRLIYAASSLQSGVPSRFSGSGSGTEFTLTISSLQPEDFATYYCLQHNSYPYTFGQGTKVEIKR; -3.25
10. H1M1230N (antibody, V domains shown, chimeric, human variable domains with mouse Fc (prefix H1M)) VH: EVQLVESGGGLVQPGGSLRLSCTASGFIFSNFWMTWVRQAPGKGLEWVANIKQDGSETYCVDSVKGRFTISRDHAKNSLFLQMNSLRAEDTAVYYCARGAGTIYYYGMDVWGQGTTVIVSS VL: DIQMTQSPSSVSASVGDRLTITCRASQDISSWLTWYQQKPGKAPNLLIYAASGLQSGVPSRFSGSGSGTDFTLTISNLQPEDFATYYCQQANSFPLTFGQGTRLEIK; -3.29

Each recorded value in this set is attributed to patent US20200255503A1.
